Target: T1, hAMY3R (human, UniProt P30988)
T1 sequence 1: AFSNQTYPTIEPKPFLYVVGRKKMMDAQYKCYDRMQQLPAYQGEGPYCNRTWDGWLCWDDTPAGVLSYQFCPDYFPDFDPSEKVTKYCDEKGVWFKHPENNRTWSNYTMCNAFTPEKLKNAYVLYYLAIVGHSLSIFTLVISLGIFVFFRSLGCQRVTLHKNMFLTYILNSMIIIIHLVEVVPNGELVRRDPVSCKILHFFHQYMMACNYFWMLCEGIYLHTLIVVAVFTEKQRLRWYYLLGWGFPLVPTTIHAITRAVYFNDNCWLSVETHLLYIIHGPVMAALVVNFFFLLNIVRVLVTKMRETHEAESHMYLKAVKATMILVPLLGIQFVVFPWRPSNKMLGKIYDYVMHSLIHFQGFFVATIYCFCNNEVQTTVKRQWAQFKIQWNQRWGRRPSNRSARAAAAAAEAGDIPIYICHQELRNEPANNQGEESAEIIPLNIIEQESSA
T1 sequence 2: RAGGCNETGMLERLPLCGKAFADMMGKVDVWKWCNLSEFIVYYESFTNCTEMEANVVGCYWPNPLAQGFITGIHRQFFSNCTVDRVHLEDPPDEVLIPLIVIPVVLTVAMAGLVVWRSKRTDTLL
Test: cell-based or functional assay
Numbered stars: 1 amine (or outer) side, 2 acyl side, 3 side chain; on linkers, the order of the positions; unused ones are H or OH. Bridge positions count the residues as written; N and C are the ends. Square brackets hold non-standard residues; d marks the D form. Ends that are not written are not given here. * marks the point of attachment. C20 diacid = O=C(O)CCCCCCCCCCCCCCCCCCC(=O)*; γGlu = O=C(O)[C@H](CCC(=O)[*:2])N[*:1]; Hyp = O=C(O)[C@@H]1C[C@@H](O)CN1; Cit = NC(=O)NCCC[C@H](N)C(=O)O
Catalogue of hAMY3R EC50 (cAMP) values
Output spec: scalar in nM, unitless text.

Sample answers from the record:
- binder: "{C20 diacid-γGlu}-KCNTATCTVDRLAHQIYQFTDKDKDNVAPPTNVGSNG[Hyp]-NH2 (disulfide 2-7 (inferred); ends not checked) [SEQ ID NO: 4]"
  hAMY3R EC50 (cAMP), nM: 0.006
- binder: "GCRFGTCTVQRLAHQIYQFTDKDKDNVAPRSKVSPQGY [SEQ ID NO: 174]"
  hAMY3R EC50 (cAMP), nM: 0.071
- binder: "GCRTGTCTVQWLAHQIYQFTDKDKDNVAPRTNIGPQG[Hyp]-NH2 (disulfide 2-7 (inferred); ends not checked) [SEQ ID NO: 341]"
  hAMY3R EC50 (cAMP), nM: 0.029
- binder: "GCRFGTCTVQRLAHQIYQFTDKDKDNVAPRTNISPNGY [SEQ ID NO: 366]"
  hAMY3R EC50 (cAMP), nM: 0.013
- binder: "GCRFGTCTVQRLAHFLYQFTDKDKDNVAPRTNVGPQGY [SEQ ID NO: 54]"
  hAMY3R EC50 (cAMP), nM: 0.012
- binder: "GCRTGTCTVQRLAHQIYQFTNKDKDNVAPRSKISPQTM [SEQ ID NO: 237]"
  hAMY3R EC50 (cAMP), nM: 0.235
- binder: "GCRFGTCTVQ[Cit]LAHQIYQFTDKDKDNVAPRSNVGPQG[Hyp]-NH2 (disulfide 2-7 (inferred); ends not checked) [SEQ ID NO: 289]"
  hAMY3R EC50 (cAMP), nM: 0.005
- binder: "KCNTATCTVQRLAHQIYQFTDKDADNVAPPTNVGSNG[Hyp]-NH2 (disulfide 2-7 (inferred); ends not checked) [SEQ ID NO: 25]"
  hAMY3R EC50 (cAMP), nM: 0.008

Tell me measured hAMY3R EC50 (cAMP) for GCRTGTCTVQ[Cit]LAHQIYQFTDKDKDNVAPRTNVSPNG[Hyp]-NH2 (disulfide 2-7 (inferred); ends not checked) [SEQ ID NO: 302] please. 0.071

Tell me measured hAMY3R EC50 (cAMP) for GCRTGTCTVQRLAHQIYQFTDKDKDNVAPRTKVGPQG[Hyp]-NH2 (disulfide 2-7 (inferred); ends not checked) [SEQ ID NO: 143] please. 0.038
